Biological target: T1, human CTLA-4 (human, UniProt P16410 36-161, limits assumed)
T1 construct: also called HuCTLA-4; human cytotoxic T lymphocyte antigen-4
T1 sequence: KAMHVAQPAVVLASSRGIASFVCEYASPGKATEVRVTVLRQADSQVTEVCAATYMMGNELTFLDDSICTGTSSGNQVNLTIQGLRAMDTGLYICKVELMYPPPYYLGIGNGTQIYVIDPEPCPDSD
Assay: ELISA, human CTLA-4 binding
Readout kind: EC50

Worked set:
>  <Binder>
MAb A5 (32G4C12) (antibody, V domains shown, also called murine antibody A5) VH: QVQLQQSGPELVRPGASVKLSCKASGYTFTTYDINWVKQRPGQGLEWIGWIYPRDGSIIFNEKFKGKATLTVDTTSSTAYMELHSLTSEDSAVYFCARRGLLGPLDYWGQGTPLTVSS VL: DIVMTQSHKFMSTSVGDRVSITCKASQDVATTVAWYQQKPGQSPKLVIYWASTRHTGVPDRFTGSGSGTDFTLTISNVQSEDLADYFCQQYSSYPTFGVGTKLELK

>  <Readout kind>
EC50

>  <Readout value>
0.049 nM

$$$$
>  <Binder>
MAb A1 (16A9E9) (antibody, V domains shown, also called murine antibody A1) VH: DVQLQESGPGLVKPSQSLSLTCSVTGDSITSGYYWNWIRQFPGNKLEWMGYISYDGINNYYPSLENRISITRDTSRNQFFLKLNSVTTEDTATYYCAREVVTPGVEVPAWYFDVWGTGTTVTVSS VL: DIVLTQSPTSLTVSLGQRAIISCKASQSVSFAGTGLMHWYQQKPGQQPKLLIYRASNLEAGVPTRFSGSGSRTDFTLNIHPVEEDDAATYYCQQSREYPWTFGGGTTLEIN

>  <Readout kind>
EC50

>  <Readout value>
0.058 nM

$$$$

Shifting focus to the binder that follows.
Find the measured EC50 of MAb A4 (13F10D7) (antibody, V domains shown, also called Murine MAb A4; murine antibody A4) VH: EVQLRQSGPELVKPGTSVKISCKASGYKFTDHFINWVKQNHGKSLEWIGDINPNNGGTNSNQKFEGKATLTVDKSSSTAYMELRSLTSEDSAVYYCARLRREYFYAMDYWGQGTSVTVSS VL: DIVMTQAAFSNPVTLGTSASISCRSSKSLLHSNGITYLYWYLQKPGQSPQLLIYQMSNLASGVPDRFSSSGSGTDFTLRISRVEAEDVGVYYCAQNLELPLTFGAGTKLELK and report it.
0.034 nM
